Source listed as ChEMBL document CHEMBL4513216.

test method notes: Toxicity liver stage against HepG2, at 10uM
Assay type: cell-based
Set-up: test concentration 10 uM, cell line HepG2-A16-CD81EGFP
test parameters: human, HepG2-A16-CD81EGFP cells; read-out: INHIBITION
assay endpoint: cytotoxicity at 10 µM (%)
Expressed in %, but write only the number.

Solved cases (8 shown):
• Cc1ccc(C)c(CC(=O)NC2(C#N)CCOCC2)c1 = 6.31
• Cc1nn2c(N3CCC(C(N)=O)CC3)cc(-c3ccccc3)nc2c1C = -2.83
• Cc1noc(C2CCCN(C(=O)c3ccc(F)cc3F)C2)n1 (stereo not given) = 2.01
• COCCn1cnnc1CN(C)c1nc(N)ncc1C = -7.85
• N#Cc1cn(C2CC2)c(=O)n(CC(O)c2ccccc2C(F)(F)F)c1=O (stereo not given) = -4.22
• COc1cccc(N2CCC(CNC(=O)N(C)Cc3ccco3)C2)c1 (stereo not given) = -130
• COCC(=O)N1CC[C@@H]2O[C@@H](COCc3csc(C)n3)CC[C@@H]21 = 3.24
• Cc1cc(CN(C)C(=O)C2CCCN(C(=O)c3cccs3)C2)no1 (stereo not given) = -17

Fill in: cytotoxicity at 10 µM of Cc1nnc2n1CCN(C(C(=O)NC(C)C)c1ccccc1)C2 (stereo not given) is ___ -5.92

Entry CC1CCCCN1C(=O)COc1nc(C(C)(C)C)no1 (stereo not given) has what cytotoxicity at 10 µM? -3.22

====

test method notes: Toxicity liver stage against HepG2, at 10uM
Type: cell-based
Set-up: test concentration 10 uM, cell line HepG2-A16-CD81EGFP
test parameters: human, HepG2-A16-CD81EGFP cells; read-out: INHIBITION
assay endpoint: cytotoxicity at 10 µM (%)
Please give a number only; it is taken to be in %.

- Cc1noc([C@H]2C[C@@H]3CCN(CC4CC4)C[C@H]3O2)n1: -7.23
- CC(C(=O)N1CCCN(c2ccc(C#N)cc2)CC1)n1cccn1 (stereo not drawn): -3.02
- COc1cccc(OCC2CCCN(C(=O)c3ncc(F)cc3F)C2)c1 (stereo not drawn): 6.35
- Cc1ncc(-c2ccnc(SCCN)n2)c(-c2ccco2)n1: -14.8
- CC(C)Nc1nc(N2CCCC2)nc2c1CCN(S(C)(=O)=O)CC2: 6.43

# next compound below
Look up cytotoxicity at 10 µM: `CN(C)S(=O)(=O)N1CC[C@]2(C[C@H](OCc3ccccn3)CO2)C1` 11.6

====

Collected cytotoxicity at 10 µM values appear next to each entry.
test method notes: Toxicity liver stage against HepG2, at 10uM
Assay type: cell-based
Parameters: test concentration 10 uM, cell line HepG2-A16-CD81EGFP
test parameters: human, HepG2-A16-CD81EGFP cells; read-out: INHIBITION
State the value, then name its unit.

• N#Cc1ccc(N2CCCC2Cn2cccn2)nc1 (stereo not drawn) = 6.55%
• O=C([C@@H]1COC[C@H]2CN(C3CCCC3)C[C@H]21)N1CCCCO1 = -1.11%

Attention now shifts to the item below.
Name the recorded cytotoxicity at 10 µM for `CCS(=O)(=O)N1CCc2nnc(CN(C)C(C)C)n2CC1` . 0.872%

====

Recorded measurements of cytotoxicity at 10 µM, one per entry
test method notes: Toxicity liver stage against HepG2, at 10uM
Type: cell-based
Design: test concentration 10 uM, cell line HepG2-A16-CD81EGFP
test parameters: human, HepG2-A16-CD81EGFP cells; read-out: INHIBITION
Write the answer as a number in %, unit excluded.

Here's what some known entries look like.
* CCN(CC(F)(F)F)C(=O)C1CCCN(Cc2ccccn2)C1 (stereo not drawn) | -2.3
* Cc1c[nH]nc1C1CCCCN1C(=O)CC1(O)CCCCC1 (stereo not drawn) | -2.92

Given the compound `CCn1c(CN(C)Cc2csc(C)n2)nc2cc(F)ccc21` , what is its reported cytotoxicity at 10 µM? -47

====

test method notes: Toxicity liver stage against HepG2, at 10uM
Type: cell-based
Set-up: test concentration 10 uM, cell line HepG2-A16-CD81EGFP
test parameters: human, HepG2-A16-CD81EGFP cells; read-out: INHIBITION
assay endpoint: cytotoxicity at 10 µM (%)
Kindly provide the numeric value in % only, without the unit symbol.

Take a look at these entries with their results.
- CCOC(=O)C1CCN(C(=O)c2cc(Br)ccc2-n2cnnn2)CC1: -2.41
- COCc1nc(C(=O)N2CCCCC2Cn2cc(C)cn2)cs1 (configuration not stated): 3.18
- Cn1cnnc1C1CCCN(C(=O)c2ccccn2)C1 (configuration not stated): -8.31

# query: cytotoxicity at 10 µM of entry Cc1cccc(C2CCCN(C(=O)CN3CCCC3=O)C2)c1 (configuration not stated) -0.942

Any idea what its cytotoxicity at 10 µM is? The compound is CC(CNC(=O)c1cc(C2CC2)nc2c1cnn2C)Cn1cccn1 (configuration not stated) 3.49

# cytotoxicity at 10 µM lookup, item O=C(Nc1ccccc1)N1CC(C(=O)N2CCCC2)C2(CCOCC2)C1 (configuration not stated) -82.4

Give the measured cytotoxicity at 10 µM of `CC(C)c1cc(-c2cnn(C)c2C2CC2)c(C#N)c(N)n1` . 28.5

====

test method notes: Toxicity liver stage against HepG2, at 10uM
Assay type: cell-based
Set-up: test concentration 10 uM, cell line HepG2-A16-CD81EGFP
test parameters: human, HepG2-A16-CD81EGFP cells; read-out: INHIBITION
assay endpoint: cytotoxicity at 10 µM
Be sure to follow the number with its unit.

Bench note: what cytotoxicity at 10 µM did `N#Cc1ccc(S(=O)(=O)Nc2ccccc2C#N)cn1` show? -2.93%

Which measured cytotoxicity at 10 µM value corresponds to Cc1nn(C)c(C)c1C1CCCN1C(=O)c1ccc(N(C)C)nn1 (stereo not drawn) ? -10.6%

// lookup cytotoxicity at 10 µM for Cc1cnc(N2CCC3(C2)C(=O)N(C)CCN3Cc2cccnc2)nc1 (stereo not drawn) -6.98%

Which cytotoxicity at 10 µM is listed for NC(=O)c1cccc(OCC(=O)N2CCCC(n3ccnc3)C2)c1 (stereo not drawn) ? -9.37%

Entry under review: `Cc1cc(S(C)(=O)=O)c(C)c(S(=O)(=O)N2CCCCCC2)c1` . Reported cytotoxicity at 10 µM? 14.1%

So what's the measured cytotoxicity at 10 µM for this one? `CC(C)(C)c1nnc(NCC(=O)N2CCc3sccc3C2)s1` 5.62%

Consider the compound COc1ccc(Cn2cc(C(C)O)nn2)cc1 (stereo not drawn) and give its measured cytotoxicity at 10 µM. 16.9%

Sample `CN(C)[C@@H]1CCN(C(=O)Cc2ccc(F)cc2)[C@H]1Cc1ccncc1` — what was its cytotoxicity at 10 µM? -84.7%

cytotoxicity at 10 µM lookup needed for `COc1ccc(CNC(=O)CN2CCc3ccccc32)cc1` , thanks. 10.5%

Find the recorded cytotoxicity at 10 µM belonging to `O=C(c1cccnc1N1CCN(CCO)CC1)N1CCCC1` and report it. -1.32%

Which value of cytotoxicity at 10 µM has been reported for OC(CN1CCCc2ccc(F)cc21)Cn1cccn1 (stereo not drawn) in the records? 5.95%

Suppose we examine the compound Cc1cc(CN2CCCC2c2c(C)nn(C)c2Cl)on1 (stereo not drawn) ; what cytotoxicity at 10 µM value has been reported? -4.77%

GET /values?readout=cytotoxicity at 10 µM&item= Fc1cccnc1N1CCC2(CNCCC2(F)F)C1 (stereo not drawn) -7.15%

Query: cytotoxicity at 10 µM; subject: `COc1ccc(C(=O)NC2CC2)c(OC2CCN(CC3CC3)CC2)c1` -1.47%

Need cytotoxicity at 10 µM of `Cc1nnc2n1CCN(Cc1ncc(-c3ccc(Cl)cc3)o1)C2` , thanks. -17.7%

Fill in the blank: the reported cytotoxicity at 10 µM of `Cc1noc(CN(Cc2ccco2)Cc2cccc3c2OCO3)n1` is ____. -2.51%

====

test method notes: Toxicity liver stage against HepG2, at 10uM
Assay type: cell-based
Design: test concentration 10 uM, cell line HepG2-A16-CD81EGFP
test parameters: human, HepG2-A16-CD81EGFP cells; read-out: INHIBITION
assay endpoint: cytotoxicity at 10 µM (%)
Numeric answer only, unit % assumed.

Worked examples, 3 compounds total:
- N#Cc1cccnc1NCc1ccc(S(=O)(=O)NC2CC2)cc1: 6.25
- Cn1c(C2CC2)nc2c1CCN(Cc1nc(-c3ccsc3)no1)C2: 8.73
- CN(C)C(=O)N1CCN(C)c2ncccc2C1: -4.14

What value of measured cytotoxicity at 10 µM is listed for `CN(Cc1ccsc1)C(=O)c1nc(N2CCCCC2)ncc1Cl` ? -27.4

State the recorded cytotoxicity at 10 µM for this entry: O=S(=O)(N(Cc1ccccn1)C1CC1)N1CCCC1c1ccco1 (stereo unspecified) -3.73

Could you tell me which cytotoxicity at 10 µM is on file for Cn1c(N)nnc1SCC1OCCc2ccccc21 (stereo unspecified) ? 0.355

Param item = CCN1CC(C(=O)NC(C)(C)CC)CC1=O (stereo unspecified) ; retrieve measured cytotoxicity at 10 µM. 1.82

Looking for the measured cytotoxicity at 10 µM of CC(O)CCn1ccc2[nH]c(=O)c(C#N)cc2c1=O (stereo unspecified) , can you help? 5.66

I would be grateful if you could share the reported cytotoxicity at 10 µM for Cc1nc(C)n(CC2CN(c3ncccn3)Cc3nccn3C2)n1 (stereo unspecified) . -8.5

So what's the measured cytotoxicity at 10 µM for this one? Cc1c(C(=O)N2CCC(O)(CN(C)C)C2)c2cc(O)ccc2n1C (stereo unspecified) -120

If you can, please state the reported cytotoxicity at 10 µM value of CC(C)NC1CCc2[nH]c(=O)ccc2C1 (stereo unspecified) . 3.64

Consider the compound `CC(C)Oc1cccc(CN(C)C(=O)Nc2cccn(C)c2=O)c1` and give its measured cytotoxicity at 10 µM. -6.13

So what does the record say about cytotoxicity at 10 µM for `COCc1ncn2c1CN(C(=O)Nc1ccccc1)CC2` ? 0.763

Requested field: cytotoxicity at 10 µM. Item: CCC(CCO)NS(=O)(=O)c1ccc(Br)cn1 (stereo unspecified) 6.62

I would be grateful if you could share the reported cytotoxicity at 10 µM for `COCCN1CCN(C)C2(CCN(C(=O)c3ccnnc3)CC2)C1=O` . 11.6

Need cytotoxicity at 10 µM of `Cc1ccc(C)c(OCCN(C)C(=O)CCc2cn[nH]c2)c1` , thanks. 1.69

Item `Cc1ccccc1-c1noc(-c2ccc(N(C)C3CCOCC3)nc2)n1` has what recorded cytotoxicity at 10 µM? 2.65

# get_value(readout='cytotoxicity at 10 µM', item= COc1ccc(OC2CCN(C(=O)C(C)Cn3cccn3)CC2)cc1 (stereo unspecified) ) 5.43
